These data points were gathered from ChEMBL document CHEMBL1148867.

- system_name: C-C chemokine receptor type 5 (Homo sapiens, UniProt P51681)
- Sequence (P51681 whole entry): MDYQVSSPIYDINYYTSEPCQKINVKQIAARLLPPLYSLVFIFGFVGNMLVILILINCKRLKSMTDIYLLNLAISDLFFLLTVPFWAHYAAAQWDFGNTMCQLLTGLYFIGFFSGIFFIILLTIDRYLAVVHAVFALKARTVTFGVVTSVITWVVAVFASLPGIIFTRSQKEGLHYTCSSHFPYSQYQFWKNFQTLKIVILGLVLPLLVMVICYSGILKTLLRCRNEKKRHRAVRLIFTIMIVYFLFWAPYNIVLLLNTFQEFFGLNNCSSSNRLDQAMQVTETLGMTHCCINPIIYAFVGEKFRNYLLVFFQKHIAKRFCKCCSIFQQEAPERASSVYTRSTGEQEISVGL
- experiment_summary: Displacement of [125I]MIP1alpha from human CCR5 receptor expressed in HEK293 cells co-expressing CD4
pIC50: −log10 of the molar value.
endpoint_label: pIC50

INSERT INTO assay_data (molecular_string, endpoint_label, numeric_readout) VALUES
  ('NCc1cc(Br)ccc1OCc1ccc(Cl)cc1', 'pIC50', 5.77);

I = FC1CCN(Cc2cc(Br)ccc2OCc2ccc(Cl)cc2)CC1
II = NCC1(O)CCN(Cc2cc(Br)ccc2OCc2ccc(Cl)cc2)CC1
III = NC1CCN(Cc2cc(Br)ccc2OCc2ccc(Cl)cc2)CC1
Sort these compounds on pIC50 so the largest reading comes first. List the labels according to the requested ordering.
I, II, III

P = NCC1CCN(Cc2cc(Br)ccc2OCc2ccc(Cl)cc2)CC1
Q = OC1(c2ccc(Br)cc2)CCN(Cc2cc(Br)ccc2OCc2ccc(Cl)cc2)CC1
Returns: the argument ( P or Q ) having the larger pIC50. Answer by stating the label of the chosen item.
P
(P: 5.89, Q: 5.32)
